What follows is literature data on IC50 for BRD4 (Homo sapiens (Human)).

Q: Please indicate recorded IC50 of COc1ncccc1-n1nc2c(c1C)C(=O)N(c1cc(C)c(=O)n(C)c1)[C@@H]2c1ccc(Cl)cc1 measured with BRD4 (Homo sapiens (Human)).
A: 91 nM

Q: Provide measured IC50 on BRD4 (Homo sapiens (Human)) for FC(F)c1nnn2c1-c1ccccc1N(c1ccc(Cl)cc1)CC2 please.
A: 100 to 1000 nM

Q: Fetch value of IC50 on BRD4 (Homo sapiens (Human)) for COc1ccc(-c2nc3c(n2C)C(=O)N(c2cc(C)c(=O)n(C)c2)C3c2ccc(Cl)cc2)cn1 (centres unmarked) .
A: 92 nM

Q: Report measured IC50 on BRD4 (Homo sapiens (Human)); entry: COc1nccc(-c2cc3c(n2C)C(c2ccc(Cl)cc2)N(c2cc(Cl)c(=O)n(C)c2)C3=O)n1 (centres unmarked)
A: 305 nM

Q: Report IC50 on BRD4 (Homo sapiens (Human)) for this entry: COc1ncccc1-c1nc2c(n1C(C)C)C(=O)N(c1cc(C)c(=O)n(C)c1)[C@@H]2c1ccc(Cl)cc1
A: 16 nM

Q: Give IC50 for this entry on BRD4 (Homo sapiens (Human)): COc1ccc(-c2nc3c(n2C(C)C)C(c2ccc(Cl)cc2)N(c2cc(OC)c4nnn(C)c4c2)C3=O)cn1 (centres unmarked)
A: 200 nM

Q: Provide IC50, recorded with BRD4 (Homo sapiens (Human)), of Cc1cc(N2C(=O)c3c(cnn3C3CC3)C2c2ccc(Cl)cc2)cn(C)c1=O (centres unmarked)
A: 110 nM

Q: // fetch IC50 for Cc1noc(C)c1-c1cnc2c3ccc(C(N)=O)nc3n(C(c3ccccc3)C3CCOCC3)c2c1 (centres unmarked) ; system: BRD4 (Homo sapiens (Human))
A: < 2 nM

----------
// read-out pIC50, gathered for BRD4 (Homo sapiens (Human)) from published studies
Reminder that pIC50 means the negative base-10 logarithm of the concentration expressed in mol/L.

Q: Provide one value: measured pIC50 of Cc1cn(C2CN(C)C2)c2c1C(=O)N(c1cc(C)c3nnc(C)n3c1)C2c1ccc(Cl)cc1 (stereo not drawn)
A: 7.62

Q: Indicate its recorded pIC50; the compound in question is COc1ccc(-c2cc3c(n2C)C(c2ccc(Cl)cc2)N(c2cc(C)c(=O)n(C)c2)C3=O)cn1 (stereo not drawn)
A: 7.38

Q: Determine from records and report pIC50 for Cc1nn(C2CC2)c2c1[C@@H](c1ccc(F)cc1F)N(c1cc(C)c3nnc(C)n3c1)C2=O
A: 7.51

Q: // fetch pIC50 given entry Cc1cc(N2C(=O)c3c(C4CN(C)C4)cn(C)c3C2c2ccc(Cl)cc2)cn2c(C)nnc12 (stereo not drawn)
A: 7.68

Q: Tell us which pIC50 value is on record for Cc1cc(N2C(=O)c3[nH]c(C4CC4)nc3[C@H]2c2ccc(Cl)cc2)cn(C)c1=O
A: 7.40

Q: Quickly give me recorded pIC50 for Cc1cc(N2C(=O)c3nc(C4CC4)n(C(C)C)c3C2c2ccc(Cl)cc2)cn2c(C)nnc12 (racemic)
A: 7.43

Q: Quick one: give measured pIC50 for Cc1cc(N2C(=O)c3ccn(C4CC4)c3C2c2ccc(Cl)cc2)cn(C)c1=O (stereo not drawn)
A: 7.17

Q: Quickly give me recorded pIC50 for Cc1cc(N2C(=O)c3nc(C)n(C(C)C)c3C2c2ccc(Cl)cc2)cn2c(C(F)F)nnc12 (stereo not drawn)
A: 7.55

Q: Identify measured pIC50 associated with Cc1[nH]nc2c1C(=O)N(c1cc(Cl)c(=O)n(C)c1)[C@@H]2c1ccc(Cl)cc1
A: 6.80

Q: For the compound Cn1ccc2c1C(c1ccc(F)cc1)N(c1cc(Cl)c(=O)n(C)c1)C2=O (stereo not drawn) , give its reported pIC50.
A: 6.48

Q: Entry Cc1cc(N2C(=O)c3cc(-c4cccn(C)c4=O)[nH]c3C2c2ccc(Cl)cc2)cn2c(C)nnc12 (stereo not drawn) needs its pIC50 filled in; supply it.
A: 7.77

Q: Name the recorded pIC50 of the compound listed here: COc1ncc(-n2nc(C)c3c2C(=O)N(c2cc(C)c(=O)n(C)c2)C3c2ccc(Cl)cc2)c(OC)n1 (racemic)
A: 7.06

Q: Recall and state the measured pIC50 for Cc1nn(C2CNC2)c2c1C(c1ccc(Cl)cc1)N(c1cc(C)c3nnc(C)n3c1)C2=O (stereo not drawn) .
A: 6.89
